Test system: ddY female mouse
Assay: Effect of test compound on hypoxia (antihypoxic activity)
Assay type: in vivo
Details: po, 1 h, read-out: Antihypoxic activity (%)
Counter-ions that a name gives are not always drawn.
In this section, each of the compounds is paired with its reported response vs control in vivo at 100 mg/kg.
measurement label: response vs control in vivo at 100 mg/kg (%)

> print(dat)
                                   compound  experimental.system  val
1  CN(C)CCOCC(O)c1ccc(OCc2ccccc2)cc1 (stereo not shown) [Compound No. 48, hydrochloride]     ddY female mouse  160
2  CN(C)CCOCC(O)c1cccc(C(F)(F)F)c1.Cl (stereo not shown) [Compound No. 42, hydrochloride]     ddY female mouse  194
3  O=C(c1ccc(F)cc1)C1CCN(CCOCC(O)c2cccc3ccccc23)CC1 (stereo not shown) [compound 260, hydrochloride]     ddY female mouse  124
4  CN(C)CCOCC(O)c1cccc2ccccc12 (stereo not shown) [compound 228, hydrochloride]     ddY female mouse  144
5  CN(C)CCOCC(O)c1ccc2ccccc2c1.Cl (stereo not shown) [compound 229, hydrochloride]     ddY female mouse  123
6  CN(C)CCOCC(O)c1cccc(F)c1.Cl (stereo not shown) [Compound No. 1, hydrochloride]     ddY female mouse  155
7  CNCCOCC(O)c1cccc2ccccc12 (stereo not shown) [compound 261, hydrochloride]     ddY female mouse  126
